Target: T1, hNgR1-his (human, UniProt Q9BZR6 27-447, limits assumed)
T1 construct: Soluble antigen flowed over antibodies captured on Protein A chips; also called antigen protein (hNgR1-his); the antigen; not shown: histidine tag
T1 sequence (looked up): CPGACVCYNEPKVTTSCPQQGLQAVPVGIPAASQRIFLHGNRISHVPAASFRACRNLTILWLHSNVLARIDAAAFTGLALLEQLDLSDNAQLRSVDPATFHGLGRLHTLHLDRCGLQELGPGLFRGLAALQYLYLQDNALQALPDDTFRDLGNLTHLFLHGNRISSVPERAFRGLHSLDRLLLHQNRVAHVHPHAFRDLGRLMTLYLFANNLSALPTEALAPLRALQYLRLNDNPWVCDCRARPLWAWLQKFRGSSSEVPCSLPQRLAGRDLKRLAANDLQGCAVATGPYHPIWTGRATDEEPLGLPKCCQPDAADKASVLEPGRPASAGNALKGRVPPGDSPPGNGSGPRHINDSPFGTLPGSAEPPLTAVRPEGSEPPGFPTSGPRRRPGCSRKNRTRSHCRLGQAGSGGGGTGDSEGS
Assay: SPR, Biacore T200; IgG1 captured on Protein A chip, hNgR1-his flowed at different concentrations
Measured Property: Kd (nM)

{"columns": ["Binder", "Measured Property", "Recorded Result"],
 "data": [
  ["C1HE2E6 antibody (antibody, human IgG1, kappa, V domains shown, Optimized from CSA108) VH: QMQLVQSGGGLEQPGRSLRLSCVTSGFNFNDYAMHWVRQAPGKGLEWVSGISWNSGAIGYADSVKGRFTVSRDNSKNSLYLQMNSLRAEDTAVYYCARDYNYEISGYYYGFDNWGQGTLVTVSS VL: DIQMTQSPSSVSASVGDRVTITCRASQGISRWLSWYQQKPGKAPKLLIYAASNLQSGVPLRFSGSGFGTDFTLTINSLQPEDSATYYCQQTNNFPYTFGQGTKVEIKR", "Kd", 0.194]
]}
